Every entry's value here was drawn from patent US8222417B2.

# assay.system: 11β-HSD1 (Homo sapiens, UniProt P28845)
# Sequence (P28845 whole entry): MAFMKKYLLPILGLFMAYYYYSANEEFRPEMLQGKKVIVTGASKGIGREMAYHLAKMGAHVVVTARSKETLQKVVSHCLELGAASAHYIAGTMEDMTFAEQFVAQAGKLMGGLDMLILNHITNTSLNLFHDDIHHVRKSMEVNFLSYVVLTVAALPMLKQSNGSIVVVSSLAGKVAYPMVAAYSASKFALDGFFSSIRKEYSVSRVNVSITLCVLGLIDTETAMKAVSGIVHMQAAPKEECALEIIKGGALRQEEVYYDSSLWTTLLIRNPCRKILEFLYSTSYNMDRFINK
Counter-ions that a name gives are not always drawn.
observable: IC50 (nM)

O=C(OC1C2CC3CC1CC(O)(C3)C2)N1CCOc2ccccc21 (centres unmarked) [Compound 42b]
4.6
Cc1ccc2c(c1)N(C(=O)N[C@H]1C3CC4CC1C[C@](O)(C4)C3)CCO2
0.8
O=C(N[C@H]1C2CC3CC1C[C@](O)(C3)C2)N1CCCc2c(F)cccc21
1
O=C(N[C@H]1C2CC3CC1C[C@](O)(C3)C2)N1CCNc2ccccc21 [Compound 32, hydrochloride]
1.4
NC(=O)[C@]12CC3CC(C1)[C@@H](NC(=O)N1CCOc4ccccc41)C(C3)C2 [Compound 37b]
0.6

I. NC(=O)C12CC3CC(C1)C(NC(=O)N1CCCc4ccccc41)C(C3)C2 (centres unmarked) [Compound 11b]
II. O=C(N[C@H]1C2CC3CC1C[C@](O)(C3)C2)N1CCOc2ccc(C(F)(F)F)cc21
III. O=C(N[C@H]1C2CC3CC1C[C@](O)(C3)C2)N1CCOc2ccccc21
Exercise: Task field, ranking: reported IC50, descending order. // ordering of labels required in reply
Solution: II, III, I
(II: 3.4 nM, III: 1.5 nM, I: 0.8 nM)

----------
Counter-ions that a name gives are not always drawn.
11β-HSD1 (Homo sapiens) measurements of IC50, listed per entry.
observable: IC50 (nM)

Use these answered entries as a reference point.
O=C(NC1C2CC3CC(C2)CC1C3)N1CCCc2ccccc21 (centres unmarked)
1.5
O=C(NC1C2CC3CC1CC(C(=O)O)(C3)C2)N1CCCc2ccccc21 (centres unmarked) [Compound 10b]
17.5
CN1CCN(C(=O)N[C@H]2C3CC4CC2C[C@](O)(C4)C3)c2ccccc21 [Compound 33, hydrochloride]
1.4

P. O=C(OC1C2CC3CC1CC(O)(C3)C2)N1CCCc2ccccc21 (centres unmarked) [Compound 18b]
Q. O=C(OC1C2CC3CC1CC(O)(C3)C2)N1CCOc2ccc(F)cc21 (centres unmarked) [Compound 44b]
Exercise: Dear colleague, could you let me know whether P or Q has the lower recorded IC50? Thanks. # reply format: chosen label
Solution: P

----------
# assay.system: 11β-HSD1 (Homo sapiens, UniProt P28845)
# Construct: human liver microsome (enzyme source, Tissue Transformation Technologies); tissue Tissue Transformation Technologies; host or cells: human liver microsomes
# test.details: 11β-HSD1 inhibition test (human liver microsome, HTRF cortisol detection)
# Format: biochemical
# assay.context: human liver microsome as enzyme source; cortisone 100 nM; 20° C., 80 minutes; generated cortisol quantified by HTRF
pIC50: −log10 of the molar value.
observable: pIC50

Would you please look over these solved cases?
Cc1ccc2c(c1)N(C(=O)OC1C3CC4CC1CC(O)(C4)C3)CCO2 (centres unmarked) [Compound 43b]
8.49
O=C(N[C@H]1C2CC3CC1C[C@](O)(C3)C2)N1CCCc2cc(Cl)ccc21
9.05
O=C(N[C@H]1C2CC3CC1C[C@](O)(C3)C2)N1CCSc2ccccc21
9.15
NC(=O)[C@]12CC3CC(C1)[C@@H](NC(=O)N1CCOc4ccc(F)cc41)C(C3)C2
9.22
Cc1ccc2c(c1)OCCN2C(=O)N[C@H]1C2CC3CC1C[C@](O)(C3)C2
8.96
O=C(N[C@H]1C2CC3CC1C[C@](O)(C3)C2)N1CCCc2ccc(F)cc21
9.00

a. O=C(N[C@H]1C2CC3CC1C[C@](O)(C3)C2)N1CCCc2cc(F)ccc21
b. CS(=O)(=O)[C@]12CC3CC(C1)[C@@H](NC(=O)N1CCOc4ccccc41)C(C3)C2
Exercise: // pick min by pIC50: a , b Please indicate the selected item by its label.
Solution: b
